- testDetails: yeast display, Sf9 membrane polyspecificity reagent, FACS + sequencing; frameworks hold sequencing errors
readoutName: polyreactivity (PSR sort gate)

Solved cases (4 shown):
[[record]]
sequencetext = "QVQLVESGGGLVQAGGSLRLSCAASGSTFYYNAMGWYRQAPGKERELVAAITFTGGSTYADSVKGRFTISRDNAKNTVYLQMNSLKPEDTAVYYCAATIQGHDYLGTGYDYWGQGTQVTVSS"
assayresult = "low polyreactivity"

[[record]]
sequencetext = "QVQLVESGGGLVQAGGSLRLSCAASGRTFIYYAMGWYRQAPGKEREFVAIISWNGTSTNYADSVKGRFTISRDNAKNTVYLQMNSLKPEDTAVYYCAASFWTDYYRYDYWGQGTQVTVSS"
assayresult = "low polyreactivity"

[[record]]
sequencetext = "QVQLVESGGGLVQAGASLRLSCAASGFTFGTYVMGWYRQAPGKERELVARITYGGGRTYYADSVKGRFTISRDNAKNTVYLQMNSLNPEDTAVYYSNARVTYSRYFKGYNYWGQGTQVTVSS"
assayresult = "high polyreactivity"

[[record]]
sequencetext = "QVQLQESGGGLVQAGGSLRLSCAASGNIVDADIMGWYRQAPGKERELVASITDGGSTNYADSVKGRFTISRDNAKNTVYLQMNSLKPEDTAVYYCAAIAYPDIPTYFDYDSEYFYWGQGTQVTVSS"
assayresult = "low polyreactivity"


Tell me the measured polyreactivity (PSR sort gate) of QVQLVESGRGLVQAGGSLRLSCAASGSILVFYAMGWYRQAPGKERELVATITGSVGRTSYADSVKGRFTISRDNAKNTVYLQMNSLKPEDSAVYYCAADADTDVFYILQEYDYWGQGTQVTVSS , please.
low polyreactivity

How about this sequence: QVQLVESGGGLVQAGGSLRLSCAASGRIFRYYTMGWYRQAPGKERELVAAITSSSGSTYYADSVKGRFTISRDNAKNTVYLQMNSLKPEDTAVYYCNAVRYTTQTPKVDYGYWGQGTQVTVSS
high polyreactivity

How about this sequence: QVQLVESGGGLVQAGGSLRLSCAASGSIFWLYAMGWYRQAPGKERELVAAITWSGGRTYYADSVKGRFTISRDTAKNTVYLQMNSLKPEDTAVYYCARRQWPWYSNPARGGKYDYWGQGTQVTVSS
low polyreactivity

How about this sequence: QVQLLESGGGLVQAGGSLRLSCAASGFTFLQYAMGWYRQAPGKERELVAAISWSGSRTYYADSVKGRFTISRDNAKNTVYLQMNSLKPEETAVYYCAAVYGGLTLTRNYYWGQGTQVTVSS
high polyreactivity

How about this sequence: QVQLVESGGGLVQAGGSLRLSCAASGRTFDPNAMGWYRQAPGKERELVAVITARGGNTSYADSVKGRFTISRDNAKNTVYLQMISLKPEDTAVYYCAAPADDTVHYQNYYWGQGTQVTVSS
low polyreactivity

How about this sequence: QVQLVESGGALVQAGGSLRLSCAASGFTFYKNAMGWYRQAPGKERELVAAISRSAGSTYYADSVKGRFTISRDNAKNTVYFQMNSLKPEDTAVYYCNAVSDVKRYDYWGQGTQVTVSS
high polyreactivity

How about this sequence: QVPLVESGGGLVQSGGSLRISCAASGSIFAPNAMGWYRQAPGKERELVAAITSGGSTDYADYVKGRFTISRDNAKNTVYLQMNRLKPEDTAVYFCAKGYVPYAIFDYWGQATQVTVSS
low polyreactivity
